B1: INTS4 (parent)
chain: YSSGEFSSGRKWGDDAPKEEVDTG

variants of: B1; test: protein stability index of a GFP-peptide fusion (GPS, HEK-293T) (PSI 1-6); higher = more stable; conditions: c terminus: a fixed tail appended;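 also: lentivirally expressed fusions sorted by FACS into six bins by GFP to DsRed ratio, PSI derived from sequencing read proportions per bin multiplied by bin number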
# protein stability index per record follows
# output: bare number, no unit

Here is how some variants turned out for protein stability index.
[[record]]
mutation_string = "S2V"
reported_measurement = 1.59

[[record]]
mutation_string = "S3Q"
reported_measurement = 3.86

[[record]]
mutation_string = "F6L"
reported_measurement = 4.24


Entry R10M — recorded protein stability index = 1.52

Input S2T . Output protein stability index: 2.67

Entry T23R , protein stability index reported as 2.96

Per the records, this variant ( S3M ) has protein stability index equal to 3.91

The reported value for G4Q in terms of protein stability index is 3.92

Noted for S7C : its protein stability index reads 2.32
